# Target Of Assay: Aldo-keto reductase family 1 member B1 (Rattus norvegicus, UniProt P07943)
Property Label: IC50 (nM)

INSERT INTO results (compound_string, number) VALUES
  ('CC(=O)Nc1cc2c3c(cccc3c1)C(=O)N(CC(=O)O)C2=O', 640);

From: ChEMBL document CHEMBL1125410
